System: Hs 822.T.
Assay Method Text: Hits validation, dose-response cell proliferation (CellTiter-Glo)
Type: cell-based
Experimental Conditions: control cell line, 12-point dose-response, mean ± SD
pIC50: −log10 of the molar value.
Catalogue of pIC50 values

Molecule | Comparator | pIC50
COc1cc(NC(C)CCCN)c2ncccc2c1 (centres unmarked) [Primaquine] | < | 4.60
O=C(Nc1ccc([N+](=O)[O-])cc1Cl)c1cc(Cl)ccc1O [Niclosamide] | = | 4.82
COc1cccc2c1C(=O)c1c(O)c3c(c(O)c1C2=O)C[C@@](O)(C(C)=O)C[C@@H]3O[C@H]1C[C@H](N)[C@H](O)[C@H](C)O1 [Daunorubicin] | = | 6.82
CC(C)C[C@H](NC(=O)[C@H](Cc1ccccc1)NC(=O)c1cnccn1)B(O)O [Bortezomib] | = | 6.35
COc1cc2nc(N3CCN(C(=O)C4COc5ccccc5O4)CC3)nc(N)c2cc1OC (centres unmarked) [Doxazosin] | = | 4.81
CN(C)CCOC(=O)COc1ccc(Cl)cc1 [Meclofenoxate] | < | 4.30
CCC(C)(C)C(=O)O[C@H]1C[C@@H](C)C=C2C=C[C@H](C)[C@H](CC[C@@H]3C[C@@H](O)CC(=O)O3)[C@H]21 [Simvastatin] | = | 5.68
COc1cc2nc(N(C)CCCNC(=O)C3CCCO3)nc(N)c2cc1OC (centres unmarked) [Alfuzosin] | < | 4.30

The values you see were collected from paper PMC5354814.
